Data credit: the supplement of paper PMC5998384

Measured melting temperature, listed per entry.
Test system: HeLa Kyoto
Assay: melting temperature (median over replicates), in situ; higher = more thermally stable
Details: cell cycle stage: mitosis
Write down the numeric answer in °C and omit the unit.

Consider the worked cases shown below.
>  <monomer.sequence>
MAASLRLLGAASGLRYWSRRLRPAAGSFAAVCSRSVASKTPVGFIGLGNMGNPMAKNLMKHGYPLIIYDVFPDACKEFQDAGEQVVSSPADVAEKADRIITMLPTSINAIEAYSGANGILKKVKKGSLLIDSSTIDPAVSKELAKEVEKMGAVFMDAPVSGGVGAARSGNLTFMVGGVEDEFAAAQELLGCMGSNVVYCGAVGTGQAAKICNNMLLAISMIGTAEAMNLGIRLGLDPKLLAKILNMSSGRCWSSDTYNPVPGVMDGVPSANNYQGGFGTTLMAKDLGLAQDSATSTKSPILLGSLAHQIYRMMCAKGYSKKDFSSVFQFLREEETF [HIBADH]

>  <unit.of.measure>
°C

>  <melting temperature>
56.9

$$$$
>  <monomer.sequence>
MAEAEESPGDPGTASPRPLFAGLSDISISQDIPVEGEITIPMRSRIREFDSSTLNESVRNTIMRDLKAVGKKFMHVLYPRKSNTLLRDWDLWGPLILCVTLALMLQRDSADSEKDGGPQFAEVFVIVWFGAVTITLNSKLLGGNISFFQSLCVLGYCILPLTVAMLICRLVLLADPGPVNFMVRLFVVIVMFAWSIVASTAFLADSQPPNRRALAVYPVFLFYFVISWMILTFTPQ [YIPF6]

>  <unit.of.measure>
°C

>  <melting temperature>
54.6

$$$$
>  <monomer.sequence>
MTELETAMGMIIDVFSRYSGSEGSTQTLTKGELKVLMEKELPGFLQSGKDKDAVDKLLKDLDANGDAQVDFSEFIVFVAAITSACHKYFEKAGLK [S100P]

>  <unit.of.measure>
°C

>  <melting temperature>
51

$$$$
>  <monomer.sequence>
MFSSVAHLARANPFNTPHLQLVHDGLGDLRSSSPGPTGQPRRPRNLAAAAVEEQYSCDYGSGRFFILCGLGGIISCGTTHTALVPLDLVKCRMQVDPQKYKGIFNGFSVTLKEDGVRGLAKGWAPTFLGYSMQGLCKFGFYEVFKVLYSNMLGEENTYLWRTSLYLAASASAEFFADIALAPMEAAKVRIQTQPGYANTLRDAAPKMYKEEGLKAFYKGVAPLWMRQIPYTMMKFACFERTVEALYKFVVPKPRSECSKPEQLVVTFVAGYIAGVFCAIVSHPADSVVSVLNKEKGSSASLVLKRLGFKGVWKGLFARIIMIGTLTALQWFIYDSVKVYFRLPRPPPPEMPESLKKKLGLTQ [SLC25A3]

>  <unit.of.measure>
°C

>  <melting temperature>
56

$$$$
>  <monomer.sequence>
MDDSETGFNLKVVLVSFKQCLDEKEEVLLDPYIASWKGLVRFLNSLGTIFSFISKDVVSKLRIMERLRGGPQSEHYRSLQAMVAHELSNRLVDLERRSHHPESGCRTVLRLHRALHWLQLFLEGLRTSPEDARTSALCADSYNASLAAYHPWVVRRAVTVAFCTLPTREVFLEAMNVGPPEQAVQMLGEALPFIQRVYNVSQKLYAEHSLLDLP [CPTP]

>  <unit.of.measure>
°C

>  <melting temperature>
48.4

$$$$

Turning now to a further sequence:
[ask] Lab request: please report melting temperature under test system HeLa Kyoto for MGKIALQLKATLENITNLRPVGEDFRWYLKMKCGNCGEISDKWQYIRLMDSVALKGGRGSASMVQKCKLCARENSIEILSSTIKPYNAEDNENFKTIVEFECRGLEPVDFQPQAGFAAEGVESGTAFSDINLQEKDWTDYDEKAQESVGIYEVTHQFVKC [C1ORF123]
[reply] 52.1

====

System: HeLa Kyoto
Experiment: solubility change mitosis vs G1/S (difference of NP-40 vs SDS log2 ratios) (log2 ratio difference); higher = more soluble in mitosis
Reported solubility change mitosis (log2) values for the following sequences.
Please give only the number in your answer, with no unit.

Solved cases (4 shown):
>  <monomer.sequence>
MVLLKEYRVILPVSVDEYQVGQLYSVAEASKNETGGGEGVEVLVNEPYEKDGEKGQYTHKIYHLQSKVPTFVRMLAPEGALNIHEKAWNAYPYCRTVITNEYMKEDFLIKIETWHKPDLGTQENVHKLEPEAWKHVEAVYIDIADRSQVLSKDYKAEEDPAKFKSIKTGRGPLGPNWKQELVNQKDCPYMCAYKLVTVKFKWWGLQNKVENFIHKQERRLFTNFHRQLFCWLDKWVDLTMDDIRRMEEETKRQLDEMRQKDPVKGMTADD [PITPNA]

>  <solubility change mitosis (log2)>
-0.0595

$$$$
>  <monomer.sequence>
MGREFGNLTRMRHVISYSLSPFEQRAYPHVFTKGIPNVLRRIRESFFRVVPQFVVFYLIYTWGTEEFERSKRKNPAAYENDK [UQCRQ]

>  <solubility change mitosis (log2)>
-0.186

$$$$
>  <monomer.sequence>
MLGAWAVEGTAVALLRLLLLLLPPAIRGPGLGVAGVAGAAGAGLPESVIWAVNAGGEAHVDVHGIHFRKDPLEGRVGRASDYGMKLPILRSNPEDQILYQTERYNEETFGYEVPIKEEGDYVLVLKFAEVYFAQSQQKVFDVRLNGHVVVKDLDIFDRVGHSTAHDEIIPMSIRKGKLSVQGEVSTFTGKLYIEFVKGYYDNPKVCALYIMAGTVDDVPKLQPHPGLEKKEEEEEEEEYDEGSNLKKQTNKNRVQSGPRTPNPYASDNSSLMFPILVAFGVFIPTLFCLCRL [MLEC]

>  <solubility change mitosis (log2)>
-0.0845

$$$$
>  <monomer.sequence>
MHARGPHGQLSPALPLASSVLMLLMSTLWLVGAGPGLVLAPELLLDPWQVHRLLTHALGHTALPGLLLSLLLLPTVGWQQECHLGTLRFLHASALLALASGLLAVLLAGLGLSSAAGSCGYMPVHLAMLAGEGHRPRRPRGALPPWLSPWLLLALTPLLSSEPPFLQLLCGLLAGLAYAAGAFRWLEPSERRLQVLQEGVLCRTLAGCWPLRLLATPGSLAELPVTHPAGVRPPIPGPPYVASPDLWSHWEDSALPPPSLRPVQPTWEGSSEAGLDWAGASFSPGTPMWAALDEQMLQEGIQASLLDGPAQEPQSAPWLSKSSVSSLRLQQLERMGFPTEQAVVALAATGRVEGAVSLLVGGQVGTETLVTHGKGGPAHSEGPGPP [RHBDD3]

>  <solubility change mitosis (log2)>
0.0168

$$$$

[ask] Any idea what its solubility change mitosis (log2) is? The sequence is MAGLPRRIIKETQRLLAEPVPGIKAEPDESNARYFHVVIAGPQDSPFEGGTFKLELFLPEEYPMAAPKVRFMTKIYHPNVDKLGRICLDILKDKWSPALQIRTVLLSIQALLSAPNPDDPLANDVAEQWKTNEAQAIETARAWTRLYAMNNI [UBE2N]
[reply] 0.111

[ask] Fill in the blank: the reported solubility change mitosis (log2) of MYYKFSGFTQKLAGAWASEAYSPQGLKPVVSTEAPPIIFATPTKLTSDSTVYDYAGKNKVPELQKFFQKADGVPVYLKRGLPDQMLYRTTMALTVGGTIYCLIALYMASQPKNK [COX7A2L] is ____.
[reply] 0.107

[ask] Give the measured solubility change mitosis (log2) of MAAQQRDCGGAAQLAGPAAEADPLGRFTCPVCLEVYEKPVQVPCGHVFCSACLQECLKPKKPVCGVCRSALAPGVRAVELERQIESTETSCHGCRKNFFLSKIRSHVATCSKYQNYIMEGVKATIKDASLQPRNVPNRYTFPCPYCPEKNFDQEGLVEHCKLFHSTDTKSVVCPICASMPWGDPNYRSANFREHIQRRHRFSYDTFVDYDVDEEDMMNQVLQRSIIDQ [RNF114] .
[reply] 0.0396

====

System: HeLa Kyoto
Assay: solubility in G1/S (NP-40 vs SDS abundance) (log2 ratio); higher = more soluble
Settings: cell cycle stage: G1/S
Please use True whenever solubility in G1/S (log2) is not below 0.1, and False whenever it is.

Some solved entries appear below for comparison.
>  <monomer.sequence>
MDSDDEMVEEAVEGHLDDDGLPHGFCTVTYSSTDRFEGNFVHGEKNGRGKFFFFDGSTLEGYYVDDALQGQGVYTYEDGGVLQGTYVDGELNGPAQEYDTDGRLIFKGQYKDNIRHGVCWIYYPDGGSLVGEVNEDGEMTGEKIAYVYPDERTALYGKFIDGEMIEGKLATLMSTEEGRPHFELMPGNSVYHFDKSTSSCISTNALLPDPYESERVYVAESLISSAGEGLFSKVAVGPNTVMSFYNGVRITHQEVDSRDWALNGNTLSLDEETVIDVPEPYNHVSKYCASLGHKANHSFTPNCIYDMFVHPRFGPIKCIRTLRAVEADEELTVAYGYDHSPPGKSGPEAPEWYQVELKAFQATQQK [SETD7]

>  <tested.on>
HeLa Kyoto

>  <answer.label>
False

$$$$
>  <monomer.sequence>
MEDLEEDVRFIVDETLDFGGLSPSDSREEEDITVLVTPEKPLRRGLSHRSDPNAVAPAPQGVRLSLGPLSPEKLEEILDEANRLAAQLEQCALQDRESAGEGLGPRRVKPSPRRETFVLKDSPVRDLLPTVNSLTRSTPSPSSLTPRLRSNDRKGSVRALRATSGKRPSNMKRESPTCNLFPASKSPASSPLTRSTPPVRGRAGPSGRAAASEETRAAKLRVSGSGEFVGLTLKFLHPSPPGPPTPIRSVLAPQPSTSNSQRLPRPQGAAAKSSSQLPIPSAIPRPASRMPLTSRSVPPGRGALPPDSLSTRKGLPRPSTAGHRVRESGHKVPVSQRLNLPVMGATRSNLQPPRKVAVPGPTR [PSRC1]

>  <tested.on>
HeLa Kyoto

>  <answer.label>
False

$$$$
>  <monomer.sequence>
MASVRIREAKEGDCGDILRLIRELAEFEKLSDQVKISEEALRADGFGDNPFYHCLVAEILPAPGKLLGPCVVGYGIYYFIYSTWKGRTIYLEDIYVMPEYRGQGIGSKIIKKVAEVALDKGCSQFRLAVLDWNQRAMDLYKALGAQDLTEAEGWHFFCFQGEATRKLAGK [SAT2]

>  <tested.on>
HeLa Kyoto

>  <answer.label>
True

$$$$
>  <monomer.sequence>
MGKIALQLKATLENITNLRPVGEDFRWYLKMKCGNCGEISDKWQYIRLMDSVALKGGRGSASMVQKCKLCARENSIEILSSTIKPYNAEDNENFKTIVEFECRGLEPVDFQPQAGFAAEGVESGTAFSDINLQEKDWTDYDEKAQESVGIYEVTHQFVKC [C1ORF123]

>  <tested.on>
HeLa Kyoto

>  <answer.label>
False

$$$$
>  <monomer.sequence>
MRTEAEAAGPPLEPGDFVQLPVPVIQQLYHWDCGLACSRMVLRYLGQLDDSEFERALQKLQLTRSIWTIDLAYLMHHFGVRHRFCTQTLGVDKGYKNQSFYRKHFDTEETRVNQLFAQAKACKVLVEKCTVSVKDIQAHLAQGHVAIVLVNSGVLHCDLCSSPVKYCCFTPSGHHCFCRTPDYQGHFIVLRGYNRATGCIFYNNPAYADPGMCSTSISNFEEARTSYGTDEDILFVYLDS [GUCD1]

>  <tested.on>
HeLa Kyoto

>  <answer.label>
False

$$$$
>  <monomer.sequence>
MAAVDIRDNLLGISWVDSSWIPILNSGSVLDYFSERSNPFYDRTCNNEVVKMQRLTLEHLNQMVGIEYILLHAQEPILFIIRKQQRQSPAQVIPLADYYIIAGVIYQAPDLGSVINSRVLTAVHGIQSAFDEAMSYCRYHPSKGYWWHFKDHEEQDKVRPKAKRKEEPSSIFQRQRVDALLLDLRQKFPPKFVQLKPGEKPVPVDQTKKEAEPIPETVKPEEKETTKNVQQTVSAKGPPEKRMRLQ [MED6]

>  <tested.on>
HeLa Kyoto

>  <answer.label>
True

$$$$
>  <monomer.sequence>
MPMYQVKPYHGGGAPLRVELPTCMYRLPNVHGRSYGPAPGAGHVQEESNLSLQALESRQDDILKRLYELKAAVDGLSKMIQTPDADLDVTNIIQADEPTTLTTNALDLNSVLGKDYGALKDIVINANPASPPLSLLVLHRLLCEHFRVLSTVHTHSSVKSVPENLLKCFGEQNKKQPRQDYQLGFTLIWKNVPKTQMKFSIQTMCPIEGEGNIARFLFSLFGQKHNAVNATLIDSWVDIAIFQLKEGSSKEKAAVFRSMNSALGKSPWLAGNELTVADVVLWSVLQQIGGCSVTVPANVQRWMRSCENLAPFNTALKLLK [AIMP2]

>  <tested.on>
HeLa Kyoto

>  <answer.label>
True

$$$$
>  <monomer.sequence>
MTTLDDKLLGEKLQYYYSSSEDEDSDHEDKDRGRCAPASSSVPAEAELAGEGISVNTGPKGVINDWRRFKQLETEQREEQCREMERLIKKLSMTCRSHLDEEEEQQKQKDLQEKISGKMTLKEFAIMNEDQDDEEFLQQYRKQRMEEMRQQLHKGPQFKQVFEISSGEGFLDMIDKEQKSIVIMVHIYEDGIPGTEAMNGCMICLAAEYPAVKFCKVKSSVIGASSQFTRNALPALLIYKGGELIGNFVRVTDQLGDDFFAVDLEAFLQEFGLLPEKEVLVLTSVRNSATCHSEDSDLEID [PDCL]

>  <tested.on>
HeLa Kyoto

>  <answer.label>
False

$$$$
>  <monomer.sequence>
MAAAGARPVELGFAESAPAWRLRSEQFPSKVGGRPAWLGAAGLPGPQALACELCGRPLSFLLQVYAPLPGRPDAFHRCIFLFCCREQPCCAGLRVFRNQLPRKNDFYSYEPPSENPPPETGESVCLQLKSGAHLCRVCGCLGPKTCSRCHKAYYCSKEHQTLDWRLGHKQACAQPDHLDHIIPDHNFLFPEFEIVIETEDEIMPEVVEKEDYSEIIGSMGEALEEELDSMAKHESREDKIFQKFKTQIALEPEQILRYGRGIAPIWISGENIPQEKDIPDCPCGAKRILEFQVMPQLLNYLKADRLGKSIDWGILAVFTCAESCSLGTGYTEEFVWKQDVTDTP [PDCD2]

>  <tested.on>
HeLa Kyoto

>  <answer.label>
False

$$$$

[ask] Check the entry MEGLVVAAGGDVSLHNFSARLWEQLVHFHVMRLTDSLFLWVGATPHLRNLAVAMCSRYDSIPVSTSLLGDTSDTTSTGLAQRLARKTNKQVFVSYNLQNTDSNFALLVENRIKEEMEAFPEKF [PSMG4] : does solubility in G1/S (log2) equal or exceed 0.1?
[reply] True
